assay: Displacement of BODIPY-labeled vinblastine from tubulin (unknown origin) at 18 uM after 60 mins by fluorescence assay relative to control; details: Homo sapiens
inhibition reference
MEASUREMENT LABEL: inhibition (%)

CC[C@]1(NC(=O)c2ccc3c(c2)CCCO3)C[C@H]2CN(CCc3c([nH]c4ccccc34)[C@@](C(=O)OC)(c3cc4c(cc3OC)N(C)[C@H]3[C@@](O)(C(=O)OC)[C@H](OC(C)=O)[C@]5(CC)C=CCN6CC[C@]43[C@@H]65)C2)C1: 98
CC[C@]1(NC(=O)c2ccc(N(C)C)cc2)C[C@H]2CN(CCc3c([nH]c4ccccc34)[C@@](C(=O)OC)(c3cc4c(cc3OC)N(C)[C@H]3[C@@](O)(C(=O)OC)[C@H](OC(C)=O)[C@]5(CC)C=CCN6CC[C@]43[C@@H]65)C2)C1: 88
CC[C@]1(NC(=O)c2ccc(C#N)cc2)C[C@H]2CN(CCc3c([nH]c4ccccc34)[C@@](C(=O)OC)(c3cc4c(cc3OC)N(C)[C@H]3[C@@](O)(C(=O)OC)[C@H](OC(C)=O)[C@]5(CC)C=CCN6CC[C@]43[C@@H]65)C2)C1: 56
CC[C@]1(NC(=O)c2ccccc2)C[C@H]2CN(CCc3c([nH]c4ccccc34)[C@@](C(=O)OC)(c3cc4c(cc3OC)N(C)[C@H]3[C@@](O)(C(=O)OC)[C@H](OC(C)=O)[C@]5(CC)C=CCN6CC[C@]43[C@@H]65)C2)C1: 72
CC[C@]1(NC(=O)c2ccc(C)c(C)c2)C[C@H]2CN(CCc3c([nH]c4ccccc34)[C@@](C(=O)OC)(c3cc4c(cc3OC)N(C)[C@H]3[C@@](O)(C(=O)OC)[C@H](OC(C)=O)[C@]5(CC)C=CCN6CC[C@]43[C@@H]65)C2)C1: 67
CC[C@]1(NC(=O)c2ccc3c(c2)CCCC3)C[C@H]2CN(CCc3c([nH]c4ccccc34)[C@@](C(=O)OC)(c3cc4c(cc3OC)N(C)[C@H]3[C@@](O)(C(=O)OC)[C@H](OC(C)=O)[C@]5(CC)C=CCN6CC[C@]43[C@@H]65)C2)C1: 63
